# procedureDetails: S16 Schwann cell PMP22 intronic element beta-lactamase assay (AID 624044); note: nearly all actives have a fitted effect of over 15% in size
# conditionLabel: S16 rat Schwann cells, PMP22 element beta-lactamase FRET, 24 h
# Procedure: Description: Charcot-Marie-Tooth-Association [CMTA] National Center for Advancing Translational Sciences [NCATS] […] S16 Schwann cell PMP22 intronic element beta-lactamase assay The beta-Lac-expressing S16 cells were seeded in black clear-bottom 1536 well plates at between 500-750 cells/6uL in DMEM medium containing 10% FBS, w/o phenol red. […] The concentration-effect curves were then classified based on curve quality (r2), response magnitude and degree of measured activity.
Results filed as inconclusive are left out. The source made the active and inactive calls. Calls come from the whole dose curve.
Field 'call' accepts t = active, f = inactive

Example results:
## Input Answer briefly: the call reported for CC1OC(OC2CCC3(C)C(CCC4C3CC(O)C3(C)C(C5=CC(=O)OC5)CCC43O)C2)CC(O)C1OC1CC(O)C(OC2CC(O)C(OC3OC(CO)C(O)C(O)C3O)C(C)O2)C(C)O1 (configuration not stated) in this assay.
## Output f

## Input Answer briefly: the call reported for O=C(O)C(O)c1ccccc1 (configuration not stated) in this assay.
## Output f

## Input Answer briefly: the call reported for NCCCCC(N)C(=O)O (configuration not stated) in this assay.
## Output f

## Input Answer briefly: the call reported for `C=C1/C(=C\C=C2/CCC[C@]3(C)[C@@H]([C@H](C)/C=C/[C@@H](O)C4CC4)CC[C@@H]23)C[C@@H](O)C[C@@H]1O` in this assay.
## Output f

Others:
## Input Answer briefly: the call reported for Cc1cnc(NC(=O)C2C(=O)c3ccccc3S(=O)(=O)N2C)s1 (configuration not stated) in this assay.
## Output f

## Input Answer briefly: the call reported for `OC[C@@H]1O[C@](CO)(O[C@H]2O[C@H](CO)[C@@H](O)[C@H](O)[C@H]2O)[C@H](O)[C@H]1O` in this assay.
## Output f

## Input Answer briefly: the call reported for `C=C1CC[C@H](O)C/C1=C/C=C1\CCC[C@]2(C)[C@@H]([C@H](C)CC[C@@H](O)C(C)(C)O)CC[C@@H]12` in this assay.
## Output f

## Input Answer briefly: the call reported for NC(C(=O)O)c1ccc(O)cc1 (configuration not stated) in this assay.
## Output f

## Input Answer briefly: the call reported for `CO[C@H]1/C=C/O[C@@]2(C)Oc3c(C)c(O)c4c(O)c(c5c(c4c3C2=O)NC2(CCN(CC(C)C)CC2)N=5)=NC(=O)/C(C)=C\C=C\[C@H](C)[C@H](O)[C@@H](C)[C@@H](O)[C@@H](C)[C@H](OC(C)=O)[C@@H]1C` in this assay.
## Output f

## Input Answer briefly: the call reported for CC1(C)SC2[C@@H](N=CN3CCCCCC3)C(=O)N2[C@H]1C(=O)O (some centres not stated) in this assay.
## Output f

## Input Answer briefly: the call reported for `COc1cc([C@H]2c3cc4c(cc3[C@@H](O[C@H]3O[C@H]5CO[C@@H](C)O[C@H]5[C@@H](O)[C@@H]3O)[C@@H]3COC(=O)[C@H]23)OCO4)cc(OC)c1O` in this assay.
## Output t

## Input Answer briefly: the call reported for C[C@H]1OC(OC2C(O)[C@@H](O)C(OC3C(O)[C@@H](O)C(O)O[C@@H]3CO)O[C@@H]2CO)[C@H](O)C(O)C1N[C@H]1C=C(CO)[C@@H](O)[C@H](O)C1O (some centres not stated) in this assay.
## Output f

## Input Answer briefly: the call reported for C[C@H]1[C@@H](OC(=O)CCC(=O)O)OC2OC3(C)CC[C@H]4[C@H](C)CC[C@@H]1[C@@]24OO3 (some centres not stated) in this assay.
## Output f

## Input Answer briefly: the call reported for O=C1Oc2ccccc2C(=O)C1C(CC(O)c1ccc(-c2ccc(Br)cc2)cc1)c1ccccc1 (configuration not stated) in this assay.
## Output f

## Input Answer briefly: the call reported for CC(CN1CC(=O)NC(=O)C1)N1CC(=O)NC(=O)C1 (configuration not stated) in this assay.
## Output f

## Input Answer briefly: the call reported for `CCCCC/C(C=O)=C/c1ccccc1` in this assay.
## Output f

These data points were gathered from PubChem BioAssay (NCATS).
